- study.system: T1, GFP-His6 (eGFP) (Aequorea victoria, UniProt P42212 2-238 = GFP)
- T1 construct: SPR and bead assays speak only of recombinant GFP or eGFP; also called recombinant GFP; A. victoria (Av) GFP
- assay.details: SPR, GFP immobilized
Recorded Kd by entry
Answer format: numeric, nM implied, no suffix.

These solved cases illustrate the format of a correct answer.
[
  {
    "binder": "LaG-29 (VHH) VHH: QVQLVESGGGLVQAGAALRLSCAASGGTFSFYNMGWFRQAPGKEREFVVSISRSGGGTAYADSVKGRFTISRDNAKNTAYLQMNSLKPEDTAVYYCAAGLRDWGREGEPHYWGQGTQVTVS",
    "result.value": 110
  },
  {
    "binder": "LaG-42 (VHH) VHH: DVQLVESGGGLVQAGDSLRLSCAASGPTGAMAWFHQGLGKEREFVGGISPSGDNIYYADSVKGRFTIDRDNAKNTVSLQMNSLKPEDMGVYYCAARRRVTLFTSRTDYEFWGRGTQVTVS",
    "result.value": 600
  },
  {
    "binder": "LaG-43 (VHH) VHH: DVQLVESGGGLVQPGGSLRLSCEASGGAFSTVAMGWFRQAPGKEREFVGAITWTAGSTYYADSAKGRFTISRDNAKNTVHLQMNSLKPEDTAVYYCAQRVRGFFGPLRTTPSWYEYWGQGTQVTVS",
    "result.value": 11
  },
  {
    "binder": "LaG-6 (VHH) VHH: QVQLVESGGGLVQAGGSLRLSCAASGRTFSTSAMAWFRQAPGKEREFAAGITWISSSTYYTDSVKGRFTISRDNAKNTVYLQMNSLKPEDTAVYYCAAKSEGYFGFPRVENEYPYWGQGTQVTV",
    "result.value": 310
  },
  {
    "binder": "LaG-30 (VHH) VHH: QVQLVESGGGLVQAGGSLRLSCAASGRTFSTSAMGWFRQAPGREREFVAAITWTVGNTIYGDSMKGRFTISRDRTKNTVDLQMDSLKPEDTAVYYCTARSRGFVLSDLRSVDSFDYKGQGTQVTVS",
    "result.value": 0.5
  },
  {
    "binder": "LaG-37 (VHH) VHH: QVQFVESGGGTVQDGDFLRLSCTASGDTFSNYHAGWFRQPPGREREFVAAISWTGEGTLYADSVKGQFTISRDNAKNAMYLQMNRLKPEDTAVYYCAAARSVGFTWRSSKSNDYAYWGQGTQVTV",
    "result.value": 24
  }
]

The binder LaG16-LaG2 (3xFLAG) (other, Member of the group m24; also called LaG16-LaG2 3xFLAG Dimer) single-chain fusion of two VHH (part 1 of 2): MAQVQLVESGGRLVQAGDSLRLSCAASGRTFSTSAMAWFRQAPGREREFVAAITWTVGNTILGDSVKGRFTISRDRAKNTVDLQMDNLEPEDTAVYYCSARSRGYVLSVLRSVDSYDYWGQGTQVTVS single-chain fusion of two VHH (part 2 of 2): MAQVQLVESGGGLVQAGGSLRLSCAASGRTFSNYAMGWFRQAPGKEREFVAAISWTGVSTYYADSVKGRFTISRDNDKNTVYVQMNSLIPEDTAIYYCAAVRARSFSDTYSRVNEYDYWGQGTQVTV showed Kd equal to 0.268
